- TARGET: GIPR (CHO-K1-hGIPR cells) (Homo sapiens, UniProt P48546)
- Construct: host or cells: CHO-K1
- Sequence (P48546 22-466): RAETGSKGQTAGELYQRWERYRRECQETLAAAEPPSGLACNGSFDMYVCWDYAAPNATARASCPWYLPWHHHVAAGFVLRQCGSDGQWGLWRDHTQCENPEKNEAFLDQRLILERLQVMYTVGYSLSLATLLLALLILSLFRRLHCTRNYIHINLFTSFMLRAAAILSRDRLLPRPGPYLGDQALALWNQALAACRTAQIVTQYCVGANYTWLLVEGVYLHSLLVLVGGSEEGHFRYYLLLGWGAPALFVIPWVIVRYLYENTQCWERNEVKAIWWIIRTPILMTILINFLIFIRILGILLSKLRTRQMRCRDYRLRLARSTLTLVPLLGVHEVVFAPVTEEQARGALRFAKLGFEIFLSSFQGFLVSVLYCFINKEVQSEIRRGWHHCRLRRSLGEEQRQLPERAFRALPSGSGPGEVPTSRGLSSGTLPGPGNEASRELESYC
- TEST: FACS binding assay
- CONDITIONS: competition with 20 nM GIP-057, 4° C., 1 hour, read-out: pIC50 Category (converted)
*1 amine or outer side, *2 acyl side, *3 side chain or, on linkers, in order; H or OH if unused. Where a SMILES comes first, the peptide text is derived from it. Bridges are numbered along the chain shown (N, C = ends). [ ]: non-standard residue; d: D form. Trp(5-Cl) = N[C@@H](Cc1c[nH]c2ccc(Cl)cc12)C(=O)O; Pyridine(2,6-diCH2) = c1cc(C[*:1])nc(C[*:2])c1; Cya = N[C@@H](CS(=O)(=O)O)C(=O)O; Hyp = O=C(O)[C@@H]1C[C@@H](O)CN1; Thp = NC1(C(=O)O)CCOCC1
MEASUREMENT KIND: IC50

// returns IC50 for CC[C@H](C)[C@@H]1NC(=O)[C@H](CC(C)C)NC(=O)C2(CCOCC2)NC(=O)[C@@H](NC(=O)[C@@H](CC(C)C)NC(=O)[C@H](CCC(=O)O)NC(=O)[C@@H]2C[C@@H](O)CN2C(=O)[C@H](Cc2c[nH]c3ccc(Cl)cc23)NC(=O)[C@H](Cc2c[nH]c3ccccc23)NC(=O)[C@H](CS(=O)(=O)O)NC(C)=O)CSCc2cccc(n2)CSC[C@@H](C(N)=O)NC1=O [GIP-189] (Ac-[Cya]W[Trp(5-Cl)][Hyp]E[dL]C[Thp]LIC-NH2; linker 7-11 via Pyridine(2,6-diCH2)) with GIPR (CHO-K1-hGIPR cells) (Homo sapiens, UniProt P48546); value = < 10 nM
